target: recombinant human ACC2 (rhACC2) (Homo sapiens (Human)); experiment: recombinant hACC2 Transcreener ADP detection FP assay; format: biochemical; conditions: 50 uM ATP, 50 min at 25° C.
Sequence (O00763 whole entry V2141I): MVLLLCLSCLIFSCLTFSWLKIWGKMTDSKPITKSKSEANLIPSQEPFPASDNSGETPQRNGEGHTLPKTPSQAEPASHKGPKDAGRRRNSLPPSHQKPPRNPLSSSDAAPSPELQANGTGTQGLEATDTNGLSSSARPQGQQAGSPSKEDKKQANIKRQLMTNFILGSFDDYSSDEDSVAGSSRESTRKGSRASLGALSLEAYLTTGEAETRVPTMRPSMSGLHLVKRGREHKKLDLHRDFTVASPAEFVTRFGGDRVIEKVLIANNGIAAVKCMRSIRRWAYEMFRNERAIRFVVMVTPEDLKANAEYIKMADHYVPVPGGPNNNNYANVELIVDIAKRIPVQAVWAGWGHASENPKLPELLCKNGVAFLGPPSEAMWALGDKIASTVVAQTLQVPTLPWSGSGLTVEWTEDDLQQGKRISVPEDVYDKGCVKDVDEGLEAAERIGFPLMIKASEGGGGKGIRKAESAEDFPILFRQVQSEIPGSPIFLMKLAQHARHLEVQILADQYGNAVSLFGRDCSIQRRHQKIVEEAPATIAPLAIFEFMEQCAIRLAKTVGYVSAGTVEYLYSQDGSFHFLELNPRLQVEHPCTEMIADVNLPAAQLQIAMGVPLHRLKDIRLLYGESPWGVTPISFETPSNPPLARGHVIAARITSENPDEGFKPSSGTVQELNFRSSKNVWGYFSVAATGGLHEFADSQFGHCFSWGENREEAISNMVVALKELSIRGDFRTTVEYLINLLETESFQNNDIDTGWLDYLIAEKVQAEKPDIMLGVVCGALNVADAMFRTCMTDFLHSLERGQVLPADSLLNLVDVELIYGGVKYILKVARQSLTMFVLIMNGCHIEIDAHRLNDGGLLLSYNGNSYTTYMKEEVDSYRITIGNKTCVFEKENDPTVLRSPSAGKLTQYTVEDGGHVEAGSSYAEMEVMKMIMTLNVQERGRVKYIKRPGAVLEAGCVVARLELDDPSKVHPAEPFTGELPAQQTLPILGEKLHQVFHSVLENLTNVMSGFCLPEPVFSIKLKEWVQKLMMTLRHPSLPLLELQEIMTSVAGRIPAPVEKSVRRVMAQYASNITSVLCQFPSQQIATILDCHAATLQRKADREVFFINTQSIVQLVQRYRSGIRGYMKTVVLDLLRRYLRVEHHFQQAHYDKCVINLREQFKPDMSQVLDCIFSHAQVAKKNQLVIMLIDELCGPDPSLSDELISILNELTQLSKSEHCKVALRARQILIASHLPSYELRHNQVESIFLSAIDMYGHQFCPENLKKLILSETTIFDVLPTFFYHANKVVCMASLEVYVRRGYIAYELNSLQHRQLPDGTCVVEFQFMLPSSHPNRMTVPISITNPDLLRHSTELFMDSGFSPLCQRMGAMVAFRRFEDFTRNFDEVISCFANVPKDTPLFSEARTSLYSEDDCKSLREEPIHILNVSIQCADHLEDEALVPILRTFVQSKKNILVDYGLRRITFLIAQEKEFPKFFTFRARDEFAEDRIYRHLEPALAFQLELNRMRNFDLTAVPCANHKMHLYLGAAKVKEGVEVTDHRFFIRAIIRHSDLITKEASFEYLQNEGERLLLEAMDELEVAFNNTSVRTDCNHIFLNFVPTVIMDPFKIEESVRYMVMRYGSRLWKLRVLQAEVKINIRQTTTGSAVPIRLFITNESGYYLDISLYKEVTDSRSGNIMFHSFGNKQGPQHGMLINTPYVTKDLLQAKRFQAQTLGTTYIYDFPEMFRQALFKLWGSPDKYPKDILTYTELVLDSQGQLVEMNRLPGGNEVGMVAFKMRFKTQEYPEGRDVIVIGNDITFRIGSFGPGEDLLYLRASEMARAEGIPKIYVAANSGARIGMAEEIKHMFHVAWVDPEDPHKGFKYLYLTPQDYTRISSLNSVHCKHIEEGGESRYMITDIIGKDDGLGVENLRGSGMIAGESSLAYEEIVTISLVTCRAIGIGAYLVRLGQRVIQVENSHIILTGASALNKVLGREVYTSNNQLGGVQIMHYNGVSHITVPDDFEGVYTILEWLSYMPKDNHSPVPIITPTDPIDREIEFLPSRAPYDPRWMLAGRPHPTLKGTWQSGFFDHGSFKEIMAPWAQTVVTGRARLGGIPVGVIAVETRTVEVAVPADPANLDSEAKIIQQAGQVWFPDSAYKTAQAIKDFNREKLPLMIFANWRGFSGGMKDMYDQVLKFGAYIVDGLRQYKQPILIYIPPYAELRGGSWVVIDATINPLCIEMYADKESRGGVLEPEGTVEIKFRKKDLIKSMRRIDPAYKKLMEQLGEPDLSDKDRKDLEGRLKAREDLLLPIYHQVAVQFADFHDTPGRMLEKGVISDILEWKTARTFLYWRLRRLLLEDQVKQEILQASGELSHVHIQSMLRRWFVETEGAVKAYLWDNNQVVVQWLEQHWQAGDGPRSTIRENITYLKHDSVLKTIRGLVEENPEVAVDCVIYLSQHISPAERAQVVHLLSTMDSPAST
Readout name: pIC50
Please report pIC50 as the negative decimal logarithm of the molar concentration, giving only the number.

Compound | pIC50
COc1ccc2cc(C(=O)N3CCC4(CC3)Cc3cn(C(C)(C)C)nc3C(=O)N4)ccc2c1 [Example 46] | 8.28
COc1cc(C(=O)N2CCC3(CC2)Cc2cn(C(C)(C)C)nc2C(=O)N3)nc2c(OC)cccc12 [Example 51] | 8.36
CC(C)n1ncc2c1C(=O)NC1(CCN(C(=O)c3ccc4[nH]nc(Cl)c4c3)CC1)C2 [Example 34] | 7.30

query: Can you share its pIC50? I mean this compound: CC(C)n1ncc2c1C(=O)NC1(CCN(C(=O)c3ccc4[nH]c(N)nc4c3)CC1)C2 [Example 35]
result: 7.04

query: How about CC(C)(C)n1cc2c(n1)C(=O)NC1(CCN(C(=O)c3ccc4ccnc(NC5COC5)c4c3)CC1)C2 [Example 122] ?
result: 7.11

* * *

Reported pIC50 values for a set of compounds
biological target: recombinant human ACC1 (rhACC1) (Homo sapiens (Human), UniProt Q13085); test: recombinant hACC1 Transcreener ADP detection FP assay; details: 50 μM ATP, 120 min at 25° C.
Please report pIC50 as the negative decimal logarithm of the molar concentration, giving only the number.

Here's what some known entries look like.
Compound | Numeric value
CC(C)(C)n1cc2c(n1)C(=O)NC1(CCN(C(=O)c3ccc4cc(N)ncc4c3)CC1)C2 [Example 94] | 6.89
CC(C)(C)n1cc2c(n1)C(=O)NC1(CCN(C(=O)c3ccc4[nH]nc(N)c4c3)CC1)C2 [Example 61] | 7.03

query: Can you share its pIC50? I mean this compound: Cn1[nH]c2ccc(C(=O)N3CCC4(CC3)Cc3cn(C(C)(C)C)nc3C(=O)N4)cc2c1=O [Example 67]
result: 5.87

* * *

Reported IC50 values for a set of compounds
Target: recombinant human ACC2 (rhACC2) (Homo sapiens (Human))
Test: recombinant hACC2 Transcreener ADP detection FP assay
Conditions: 50 uM ATP, 50 min at 25° C.
Experimental: For example direct inhibition of ACC activity, for the compound of Formula (I) was determined using preparations of recombinant human ACC1 (rhACC1) and recombinant human ACC2 (rhACC2). [3] Preparation of rhACC2. Human ACC2 inhibition was measured using purified recombinant human ACC2 (hrACC2). […] [4] […] The data was acquired on an Envision Fluorescence reader (PerkinElmer) using a 620 excitation Cy5 FP general dual mirror, 620 excitation Cy5 FP filter, 688 emission (S) and a 688 (P) emission filter.
Output spec: scalar in nM, unitless text.

Molecule | Target | IC50 (nM)
COc1cc(C(=O)N2CCC3(CC2)Cc2cn(C(C)(C)C)nc2C(=O)N3)cc2cn[nH]c12 | recombinant human ACC2 (rhACC2) (Homo sapiens (Human)) | 5.6
COc1ccc(C)c2[nH]c(C(=O)N3CCC4(CC3)Cc3cn(C(C)(C)C)nc3C(=O)N4)cc12 | recombinant human ACC2 (rhACC2) (Homo sapiens (Human)) | 1.9
CNc1cc2cc(C(=O)N3CCC4(CC3)Cc3cn(C(C)(C)C)nc3C(=O)N4)ccc2cn1 | recombinant human ACC2 (rhACC2) (Homo sapiens (Human)) | 5.5
CNc1ccc2ccc(C(=O)N3CCC4(CC3)Cc3cnn(C(C)C)c3C(=O)N4)cc2n1 | recombinant human ACC2 (rhACC2) (Homo sapiens (Human)) | 9.2
CC(C)(C)n1cc2c(n1)C(=O)NC1(CCN(C(=O)c3ccc4ccc(N)nc4c3)CC1)C2 | recombinant human ACC2 (rhACC2) (Homo sapiens (Human)) | 5.9

Would you kindly look at the next entry?
query: Can you share its IC50? I mean this compound: COc1n[nH]c2cc(C(=O)N3CCC4(CC3)Cc3cn(C(C)(C)C)nc3C(=O)N4)ccc12
result: 18

Values from patent US8993586B2
